- experiment_description: Antioxidant activity assessed as Trolox equivalents of photolysis-induced methyl radical scavenging activity using DMPO spin trap by ESR spectroscopic method
- Format: functional
result_type: Activity (equiv)

smiles_representation	result_type	unit_tag	obs_value
COc1ccc(/C=C/c2cc(O)cc(O)c2)cc1O	Activity	equiv	0.04
Oc1cc(O)cc(/C=C/c2ccc(O)cc2O)c1	Activity	equiv	0.08
Oc1ccc(/C=C/c2cc(O)cc(O)c2)cc1	Activity	equiv	-0
COc1cc(/C=C/c2ccc(O)cc2)cc(OC)c1	Activity	equiv	-0
Oc1cc(O)cc(/C=C/c2ccc(O)c(O)c2)c1	Activity	equiv	0.11
COc1cc(/C=C/c2ccc(OC)c(OC)c2)cc(OC)c1	Activity	equiv	-0
